# system: Transforming acidic coiled-coil-containing protein 3 (Homo sapiens) (UniProt Q9Y6A5)
# experiment-description: inhibitors of ARNT PAS-B binding to TACC3 – biochemical, AlphaScreen, single concentration, primary screen (AID 623870);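 further: 0% = complete ARNT plus TACC3 wells and 100% = ARNT alone without TACC3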
# condition: AlphaScreen His-ARNT PAS-B/GST-TACC3 binding, luminescence; at 9.99 µM; stronger effect = higher value; TACC3 fragment carries E629A point mutation
Hit rate of the full screen: of about 390,000 compounds, about 2,600 (0.67%) were called active. The list comes from a sample in which actives are over-represented; it also holds close analogues and randomly drawn compounds.
property: inhibition

compound	val
COc1ccccc1-c1nnc(NC(=O)c2cccc(N3C(=O)CCC3=O)c2)o1	60.7% (active)
CC(C)(C)[S@](=O)N1Cc2cc(C(=O)N3CCCCC3)nc(-c3cccc(-c4ccccc4F)c3)c2[C@@H]1CCO	9.08% (inactive)
COCCCNC(=O)Cn1cc(C(=O)C2CC2)c2ccccc21	1.82% (inactive)
CCCN(C)C[C@H]1Oc2ncc(-c3cccnc3)cc2C(=O)N([C@@H](C)CO)C[C@@H]1C	-0.744% (inactive)
COc1ccccc1-c1cccc(-c2nc(C(=O)N3CCN(C)CC3)cc3c2[C@H](CCO)N([S@@](=O)C(C)(C)C)C3)c1	51.3% (active)
CCc1n[nH]c(=S)n1/N=C/c1c[nH]c2ccc(Br)cc12	-4.96% (inactive)
COc1ccccc1C(=O)Oc1ccc(N2C(=O)CCC2=O)cc1	-4.25% (inactive)
COCCNC(=O)C(OC(=O)c1cccs1)c1ccc(F)cc1 (stereo not given)	-9.93% (inactive)
Cn1c(N)c(C(=O)COC(=O)c2cnc(Cl)c(Cl)c2)c(=O)n(C)c1=O	45.8% (active)
Cn1c(N)c(C(=O)COC(=O)COc2ccc(Cl)cc2)c(=O)n(C)c1=O	2.04% (inactive)
Cc1cc(C)nc(N/N=C/c2c(CO)cnc(C)c2O)n1	63% (active)
COc1ccccc1NC(=O)N(C)C[C@@H]1Oc2ncc(C#CCC(C)C)cc2C(=O)N([C@@H](C)CO)C[C@@H]1C	-5.04% (inactive)
OC[C@H]1[C@@H](c2ccc(C#CC3(O)CCCC3)cc2)[C@H]2CN(Cc3cncnc3)CCCCN21	0.497% (inactive)
Cc1cccc(-n2cnc(C(=O)NNC(=S)Nc3ccccc3)c2)n1	70.3% (active)
COc1ccc(Cl)cc1NC(=O)c1cccc(N2C(=O)C3CC=CCC3C2=O)c1 (stereo not given)	3.74% (inactive)

----------
# system: Transforming acidic coiled-coil-containing protein 3 (Homo sapiens) (UniProt Q9Y6A5)
# experiment-description: inhibitors of ARNT PAS-B binding to TACC3 – biochemical, AlphaScreen, single concentration, primary screen (AID 623870);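 further: 0% = complete ARNT plus TACC3 wells and 100% = ARNT alone without TACC3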
# condition: AlphaScreen His-ARNT PAS-B/GST-TACC3 binding, luminescence; at 9.99 µM; stronger effect = higher value; TACC3 fragment carries E629A point mutation
Out of some 390,000 compounds screened, about 2,600 (0.67%) were called active. What follows is part of a selection rich in actives, with near analogues and random picks from the rest.
Overview of reported inhibition across a group of molecules:
property: inhibition (%)

molecule	property	val
CC1(c2ccc(Cl)cc2Cl)NC(=O)N(CC(=O)Nc2cccnc2Cl)C1=O (stereo not drawn)	inhibition	0.909
CC(NC(=O)COc1cccnc1[N+](=O)[O-])c1ccc(Cl)cc1Cl (stereo not drawn)	inhibition	1.05
C/C(=N/N1CCN(Cc2cccc3ccccc23)CC1)c1cccnc1	inhibition	3.31
